assayOverview: PAMPA-BBB permeability test (brain lipid artificial membrane)
Assay type: in vitro ADME
testConditions: brain lipid 20% in dodecane; pH 7.4 buffer; 14 hr diffusion
experimentalEndpoint: PAMPA-BBB

# input Look up PAMPA-BBB for this compound: COCC(=O)N[C@@H](CC(N)=O)C(=O)N[C@@H](Cc1ccc(O)cc1)C(N)=O
# output 0 10^−6 cm/s

# input Look up PAMPA-BBB for this compound: NCC(=O)N[C@@H](CC(N)=O)C(=O)NCc1ccc2ccc3cccc4ccc1c2c34
# output 0 10^−6 cm/s

# input Look up PAMPA-BBB for this compound: NC(=O)C[C@H](NC(=O)CS)C(=O)N[C@@H](Cc1ccc(O)cc1)C(N)=O [Compound 7, N-(thiohydroxyacteyl)-Asn-Tyr-NH2]
# output 0 10^−6 cm/s

# input Look up PAMPA-BBB for this compound: CC(=O)OCC(=O)N[C@@H](CC(N)=O)C(=O)N[C@@H](Cc1ccc(O)cc1)C(N)=O
# output 0 10^−6 cm/s
